ASSAY_METHOD_TEXT: Tmax in Sprague-Dawley rat plasma at 3 mg/kg, iv by UPLC-MS analysis
Assay type: ADME, organism-based
READOUT_KIND: Tmax (min)
Give the number; min is assumed, so skip it.

Data request, read-out Tmax, for Cl.O=C(NCCCCN1CCN(c2cccc(Cl)c2Cl)CC1)Oc1ccc(-c2ccccc2)cc1 5

====

ASSAYED_SYSTEM: UniProtKB P35462
Sequence (P35462 whole entry): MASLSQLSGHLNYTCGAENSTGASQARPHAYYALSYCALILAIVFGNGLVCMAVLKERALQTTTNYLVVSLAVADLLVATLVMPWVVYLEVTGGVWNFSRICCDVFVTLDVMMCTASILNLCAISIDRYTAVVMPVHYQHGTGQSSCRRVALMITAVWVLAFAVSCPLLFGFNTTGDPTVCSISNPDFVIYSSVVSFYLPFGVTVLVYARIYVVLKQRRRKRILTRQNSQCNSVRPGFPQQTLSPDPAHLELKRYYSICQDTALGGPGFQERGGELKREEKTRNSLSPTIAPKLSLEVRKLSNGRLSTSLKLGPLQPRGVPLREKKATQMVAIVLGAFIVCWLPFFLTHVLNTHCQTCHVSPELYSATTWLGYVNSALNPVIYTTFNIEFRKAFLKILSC
ASSAY_METHOD_TEXT: Agonist activity at recombinant human dopamine D3 receptor expressed in CHO-K1 cells assessed as […] in cAMP accumulation after 30 mins by HTRF assay relative to dopamine
Type: functional, cell-based
READOUT_KIND: Efficacy (%)
Give the number; % is assumed, so skip it.

NC(=O)c1cccc(-c2ccc(OC(=O)NCCCCN3CCN(c4cccc(Cl)c4Cl)CC3)cc2F)c1 : 74

Data request, read-out Efficacy, for NC(=O)c1cccc(-c2ccc(OC(=O)NCCCCN3CCN(c4ccccc4)CC3)cc2)c1 88

Data request, read-out Efficacy, for COc1ccccc1N1CCN(CCCCNC(=O)Oc2ccc3c(c2)[nH]c2ccccc23)CC1 66

Data request, read-out Efficacy, for COc1cc(OC(=O)NCCCCN2CCN(c3cccc(Cl)c3Cl)CC2)ccc1-c1ccccc1 32

====

Each entry below carries its recorded IC50.
ASSAYED_SYSTEM: Fatty-acid amide hydrolase 1 (Homo sapiens)
Sequence (O00519 whole entry): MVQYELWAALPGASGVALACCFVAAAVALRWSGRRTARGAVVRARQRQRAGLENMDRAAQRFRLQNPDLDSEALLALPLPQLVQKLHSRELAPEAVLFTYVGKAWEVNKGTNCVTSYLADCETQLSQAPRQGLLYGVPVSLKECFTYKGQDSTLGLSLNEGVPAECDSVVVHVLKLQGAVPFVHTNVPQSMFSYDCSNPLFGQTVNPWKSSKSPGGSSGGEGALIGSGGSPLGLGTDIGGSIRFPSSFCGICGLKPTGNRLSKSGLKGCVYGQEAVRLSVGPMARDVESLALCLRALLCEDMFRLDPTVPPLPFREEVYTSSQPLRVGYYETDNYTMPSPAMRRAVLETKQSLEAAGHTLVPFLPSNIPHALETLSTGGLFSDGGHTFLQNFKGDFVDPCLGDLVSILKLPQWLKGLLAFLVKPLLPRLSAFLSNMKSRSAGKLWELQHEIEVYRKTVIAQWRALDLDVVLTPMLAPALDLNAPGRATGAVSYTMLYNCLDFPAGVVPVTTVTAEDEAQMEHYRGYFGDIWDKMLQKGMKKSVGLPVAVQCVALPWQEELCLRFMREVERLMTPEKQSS
ASSAY_METHOD_TEXT: Inhibition of human FAAH1 expressed in HEK293 cell membrane-enriched lysate using AMC arachidonyl amide as substrate preincubated for 50 mins followed by substrate addition measured after 4 hrs by fluorescence analysis
Give the number; nM is assumed, so skip it.

O=C(NCCCCN1CCN(c2ccccc2C(F)(F)F)CC1)Oc1ccc(-c2ccccc2)cc1 : 20.7

Data request, read-out IC50, for COc1cc(OC(=O)NCCCCN2CCN(c3cccc(Cl)c3Cl)CC2)ccc1-c1ccccc1 4.3

Data request, read-out IC50, for NC(=O)c1cccc(-c2ccc(OC(=O)NCCCCN3CCN(c4cccc(Cl)c4Cl)CC3)cc2F)c1 1

====

ASSAY_METHOD_TEXT: Cmax in Sprague-Dawley rat brain at 10 mg/kg, po by UPLC-MS analysis
Type: ADME, organism-based
Parameters: dose 10 mg/kg, route oral
READOUT_KIND: Cmax (ng/mL)
Give the number; ng/mL is assumed, so skip it.

Data request, read-out Cmax, for Cl.O=C(NCCCCN1CCN(c2cccc(Cl)c2Cl)CC1)Oc1ccc(-c2ccccc2)cc1 37

====

ASSAY_METHOD_TEXT: Oral bioavailability in Sprague-Dawley rat […] at 10 mg/kg by UPLC-MS analysis
Assay type: ADME, organism-based
READOUT_KIND: bioavailability (%)
Give the number; % is assumed, so skip it.

Data request, read-out bioavailability, for Cl.O=C(NCCCCN1CCN(c2cccc(Cl)c2Cl)CC1)Oc1ccc(-c2ccccc2)cc1 21

====

ASSAY_METHOD_TEXT: Volume of distribution in Sprague-Dawley rat plasma at 3 mg/kg, iv by UPLC-MS analysis
Type: ADME, organism-based
READOUT_KIND: Vd (L/kg)
Give the number; L/kg is assumed, so skip it.

Data request, read-out Vd, for Cl.O=C(NCCCCN1CCN(c2cccc(Cl)c2Cl)CC1)Oc1ccc(-c2ccccc2)cc1 23.7

====

ASSAYED_SYSTEM: D(2) dopamine receptor (Homo sapiens)
Sequence (P14416 whole entry): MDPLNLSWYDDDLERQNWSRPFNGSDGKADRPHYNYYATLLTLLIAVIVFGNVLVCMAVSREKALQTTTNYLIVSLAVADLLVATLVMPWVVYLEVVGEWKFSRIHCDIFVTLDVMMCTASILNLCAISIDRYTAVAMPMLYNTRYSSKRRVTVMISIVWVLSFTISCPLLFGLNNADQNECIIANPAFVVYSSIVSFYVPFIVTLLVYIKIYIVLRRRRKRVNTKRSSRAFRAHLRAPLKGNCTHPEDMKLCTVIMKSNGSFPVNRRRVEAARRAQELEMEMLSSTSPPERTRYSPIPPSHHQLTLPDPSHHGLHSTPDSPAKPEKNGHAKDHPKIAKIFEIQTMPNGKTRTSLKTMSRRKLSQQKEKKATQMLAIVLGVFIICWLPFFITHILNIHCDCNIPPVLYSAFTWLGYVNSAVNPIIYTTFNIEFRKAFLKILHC
ASSAY_METHOD_TEXT: Agonist activity at human dopamine D2 receptor-short expressed in CHO-K1 cells assessed as reduction in adenylyl cyclase activator NKH 477 induced cAMP accumulation preincubated for 10 mins followed by NKH 477 addition by HTRF assay
Each entry below carries its recorded pEC50.
pEC50 here is simply -log10 of the concentration when that concentration is written in mol/L.

NC(=O)c1cccc(-c2ccc(OC(=O)NCCCCN3CCN(c4cccc(Cl)c4Cl)CC3)cc2F)c1 : 7.86

Proceeding to the next compound to report its pEC50.
Data request, read-out pEC50, for COc1ccccc1N1CCN(CCCCNC(=O)Oc2ccc3c(c2)[nH]c2ccccc23)CC1 7.24

# credit: ChEMBL document CHEMBL4007414
